Entry source: patent US20020102533A1

# SYSTEM TESTED: HCV NS3 protease, genotype 1a (Hepatitis C virus genotype 1a, UniProt P26664)
# Construct: NS3 protease catalytic domain (amino acids 1 to 192); MGAQH expression leader (5 aa), or alternatively the 15 aa His tag […]; made in house; host or cells: E. coli BL21 (DE3)
# TEST: biochemical
# Type: biochemical
# CONDITIONS USED: substrate A
Where a SMILES comes first, the peptide text is derived from it. [ ]: non-standard residue; d: D form. Dip = N[C@H](C(=O)O)C(c1ccccc1)c1ccccc1; Cha = N[C@@H](CC1CCCCC1)C(=O)O
MEASURED ATTRIBUTE: (S = P6-P3′) Inhibition(+) / Activation (−)

CC(=O)N[C@H](C(=O)N[C@@H](CCC(=O)O)C(=O)N[C@@H](CC1CCCCC1)C(N)=O)C(c1ccccc1)c1ccccc1 [Q236, Ac-Dpa-Glu-Cha-NH2] (Ac-[Dip]-Glu-[Cha]-NH2) :: −
CC(=O)N[C@@H](CC(=O)O)C(=O)N[C@@H](CCC(=O)O)C(=O)N[C@H](C(N)=O)C(c1ccccc1)c1ccccc1 [Q230, Ac-Asp-Glu-Dpa-NH2] (Ac-Asp-Glu-[Dip]-NH2) :: +
CC(=O)N[C@@H](CCC(=O)O)C(=O)N[C@H](C(=O)N[C@@H](CCC(=O)O)C(=O)N[C@@H](CC1CCCCC1)C(N)=O)C(c1ccccc1)c1ccccc1 [Q240, Ac-Glu-Dpa-Glu-Cha-NH2] (Ac-E[Dip]E[Cha]-NH2) :: −
CC(=O)N[C@@H](CC(=O)O)C(=O)N[C@@H](CCC(=O)O)C(=O)N[C@H](C(=O)N[C@@H](CCC(=O)O)C(=O)N[C@@H](CC1CCCCC1)C(N)=O)C(c1ccccc1)c1ccccc1 [Q228, Ac-Asp-Glu-Dpa-Glu-Cha-NH2] (Ac-DE[Dip]E[Cha]-NH2) :: −

* * *

Where a SMILES comes first, the peptide text is derived from it. [ ]: non-standard residue; d: D form. Dip = N[C@H](C(=O)O)C(c1ccccc1)c1ccccc1; Cha = N[C@@H](CC1CCCCC1)C(=O)O
So I've got pKd readings for HCV NS3 protease, genotype 1a (Hepatitis C virus genotype 1a), take a look.
Give bare numbers, as −log10 of the molar value.

// batch mode: one pKd value per listed entry
1. CC(=O)N[C@H](C(=O)N[C@@H](CCC(=O)O)C(=O)N[C@@H](CC1CCCCC1)C(=O)N[C@@H](CS)C(=O)O)C(c1ccccc1)c1ccccc1 [Q296, Ac-Dpa-Glu-Cha-Cys-OH] (Ac-[Dip]E[Cha]C-OH)
2. CC(=O)N[C@@H](CC(=O)O)C(=O)N[C@@H](CCC(=O)O)C(=O)N[C@H](C(N)=O)C(c1ccccc1)c1ccccc1 [Q230, Ac-Asp-Glu-Dpa-NH2] (Ac-Asp-Glu-[Dip]-NH2)
3. CC(=O)N[C@@H](CC(=O)O)C(=O)N[C@@H](CCC(=O)O)C(=O)N[C@H](C(=O)N[C@@H](CCC(=O)O)C(N)=O)C(c1ccccc1)c1ccccc1 [Q229, Ac-Asp-Glu-Dpa-Glu-NH2] (Ac-DE[Dip]E-NH2)

Response:
5.82
3.40
3.62

Request: // lookup pKd for CC(=O)N[C@@H](CCC(=O)O)C(=O)N[C@H](C(=O)N[C@@H](CCC(=O)O)C(=O)N[C@@H](CC1CCCCC1)C(=O)N[C@@H](CS)C(=O)O)C(c1ccccc1)c1ccccc1 [Q297, Ac-Glu-Dpa-Glu-Cha-Cys-OH] (Ac-E[Dip]E[Cha]C-OH)
Response: 4.40
